Molecular target: Tyrosine-protein kinase JAK2 (Homo sapiens)
Sequence (O60674 whole entry, the tested form may be a part): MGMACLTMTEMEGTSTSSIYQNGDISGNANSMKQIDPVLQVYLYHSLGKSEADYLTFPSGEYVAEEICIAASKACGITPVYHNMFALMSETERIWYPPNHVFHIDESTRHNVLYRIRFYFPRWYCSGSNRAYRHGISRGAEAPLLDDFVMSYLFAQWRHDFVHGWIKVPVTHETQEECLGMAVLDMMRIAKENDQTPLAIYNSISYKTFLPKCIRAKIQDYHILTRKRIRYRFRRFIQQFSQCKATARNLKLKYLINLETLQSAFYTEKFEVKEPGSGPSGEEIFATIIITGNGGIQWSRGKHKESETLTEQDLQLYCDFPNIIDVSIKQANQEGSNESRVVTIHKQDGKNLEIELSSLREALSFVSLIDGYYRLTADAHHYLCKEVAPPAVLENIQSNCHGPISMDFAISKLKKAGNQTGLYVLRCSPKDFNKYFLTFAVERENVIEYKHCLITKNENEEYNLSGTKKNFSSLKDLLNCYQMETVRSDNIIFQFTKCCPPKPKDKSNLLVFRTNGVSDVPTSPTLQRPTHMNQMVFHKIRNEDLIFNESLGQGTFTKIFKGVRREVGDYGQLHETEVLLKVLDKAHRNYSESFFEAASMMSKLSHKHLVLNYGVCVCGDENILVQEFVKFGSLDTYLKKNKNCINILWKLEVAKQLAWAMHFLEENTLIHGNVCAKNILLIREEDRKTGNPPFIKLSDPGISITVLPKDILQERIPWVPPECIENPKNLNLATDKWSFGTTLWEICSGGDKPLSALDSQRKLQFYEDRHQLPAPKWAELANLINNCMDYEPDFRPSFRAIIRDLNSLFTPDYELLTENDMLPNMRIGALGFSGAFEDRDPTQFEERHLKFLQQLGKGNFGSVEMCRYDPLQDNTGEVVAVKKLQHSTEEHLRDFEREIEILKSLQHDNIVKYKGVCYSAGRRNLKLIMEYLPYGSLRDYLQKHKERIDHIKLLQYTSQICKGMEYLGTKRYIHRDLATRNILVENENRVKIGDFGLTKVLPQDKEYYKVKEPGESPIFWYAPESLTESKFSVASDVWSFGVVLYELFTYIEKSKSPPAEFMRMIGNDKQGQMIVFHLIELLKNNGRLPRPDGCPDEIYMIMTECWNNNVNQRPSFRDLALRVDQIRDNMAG
Test: Inhibition of human recombinant N-terminal hexahistidine tagged JAK2 JH1 catalytic domain (835 to 1132 residues) expressed in baculovirus infected Sf9 cells using Tyr6 peptide as substrate incubated for 30 secs under shaking condition measured after 1 hr by Z'-LYTE assay
pIC50: −log10 of the molar value.
Observable: pIC50

Field: example entries. Status: answers known.
Compound | pIC50
CC(Oc1cc(-c2ccc(N3CCNCC3)nc2)cnc1N)c1c(Cl)ccc(F)c1Cl (stereo not given) | 6.09
CC(Nc1cc(-c2cnn(C3CCNCC3)c2)cnc1N)c1c(Cl)ccc(F)c1Cl (stereo not given) | 6.90
CC(Oc1cc(-c2cnn(C3CCOCC3)c2)cnc1N)c1c(Cl)ccc(F)c1Cl (stereo not given) | 7.19

A = COc1ccc(F)c(Cl)c1C(C)Oc1cc(-c2cnn(C3CCNCC3)c2)cnc1N (stereo not given)
B = CC(Oc1cc(-c2cncc(N3CCNCC3)c2)cnc1N)c1c(Cl)ccc(F)c1Cl (stereo not given)
When A and B are compared, which has the higher number for pIC50? Let me know the label of the one you choose.
A
(A: 7.59, B: 6.92)
